Catalogue of binders with associated Binding Signal
- ASSAYED_TARGET: T1, human TREM2 (human, UniProt Q9NZC2 19-174, limits assumed)
- T1 construct: also called triggering receptor expressed on myeloid cells 2
- T1 sequence: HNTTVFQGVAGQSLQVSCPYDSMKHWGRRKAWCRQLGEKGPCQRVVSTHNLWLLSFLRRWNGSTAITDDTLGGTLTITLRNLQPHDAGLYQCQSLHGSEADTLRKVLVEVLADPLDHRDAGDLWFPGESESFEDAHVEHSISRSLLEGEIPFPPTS
- ASSAY: 2nd screen, 10 nM

Using the record for V24 (antibody, V domains shown, also called 6E7 variant V24) VH: EVQLVQSGAEVKKPGESLKISCKGSGYSFTSYWIAWVRQMPGKGLEWMGIIYPGDSDVRYSPSFQGQVTISADKSISTAYLQWSSLKASDTAMYFCARSRTFYYDSSDYFDYWGQGTLVTVSS VL: DIQMTQSPSSVSASVGDRVTITCRASQGISSWLAWYQQKPGKAPKLLIYAASSLQKGVPSRFSGSGSGTDFTLTISSLQPEDFATYFCQQADSFPHTFGQGTKLEIK , report its Binding Signal.
2.9 fold over 6E7 parental antibody

Same read-out for V73 (antibody, V domains shown, also called 6E7 variant V73; LV-106/HV-109) VH: EVQLVQSGAEVKKPGESLKISCKGSGYSFGSYWIAWVRQMPGKGLEWMGIIYPGDSDTRYSPGFQGQVTISADKSISTAYLQWSSLKASDTAMYFCARGRTFYYDSSDYFDYWGQGTLVTVSS VL: DIQMTQSPSSVSASVGDRVTITCRASQGISSWLAWYQQKPGKAPKLLIYAASSRQNGVPSRFSGSGSGTDFTLTISSLQPEDFATYFCQQADSYPRTFGQGTKLEIK ?
5.44 fold over 6E7 parental antibody

Same read-out for V13 (antibody, V domains shown, also called 6E7 variant V13) VH: EVQLVQSGAEVKKPGESLKISCKGSGYSFGSYWIAWVRQMPGKGLEWMGIIYPGDSDTRYSASFQGQVTISADKSISTAYLQWSSLKASDTAMYFCARGRTFYYDSSDYFDYWGQGTLVTVSS VL: DIQMTQSPSSVSASVGDRVTITCRASQGISSWLAWYQQKPGKAPKLLIYAASSLQGGVPSRFSGSGSGTDFTLTISSLQPEDFATYFCQQADSMPRTFGQGTKLEIK ?
1.35 fold over 6E7 parental antibody

Same read-out for V5 (antibody, V domains shown, also called 6E7 variant V5) VH: EVQLVQSGAEVKKPGESLKISCKGSGYSFTSYWIAWVRQMPGKGLEWMGTIYPGDSDTRYSPSFQGQVTISADKSISTAYLQWSSLKASDTAMYFCARQRTFYYDSSDYFDYWGQGTLVTVSS VL: DIQMTQSPSSVSASVGDRVTITCRASQGISSWLAWYQQKPGKAPKLLIYAASSLQNGVPSRFSGSGSGTDFTLTISSLQPEDFATYFCQQADSHPRTFGQGTKLEIK ?
2.84 fold over 6E7 parental antibody

Same read-out for V48 (antibody, V domains shown, also called 6E7 variant V48) VH: EVQLVQSGAEVKKPGESLKISCKGSGYSFGSYWIAWVRQMPGKGLEWMGIIYPGDSDVRYSPSFQGQVTISADKSISTAYLQWSSLKASDTAMYFCARMRTFYYDSSDYFDYWGQGTLVTVSS VL: DIQMTQSPSSVSASVGDRVTITCRASQGISSWLAWYQQKPGKAPKLLIYAASSLQTGVPSRFSGSGSGTDFTLTISSLQPEDFATYFCQQADSLPRTFGQGTKLEIK ?
2.54 fold over 6E7 parental antibody
